For each record, write down the corresponding GI50.
Tested on: UO-31 renal
ASSAY_COMMENT: NCI tumour cell line growth inhibition, 48 h

> print(dat)
                                    molecule  quantity  experimental.result
 1  COc1ccc(/C=C/C(=O)c2ccc(Nc3ncnc4ccccc34)cc2)cc1OC      GI50              4.57 µM
 2  COC(=O)C1=CN(CC2=CC(=O)C(C)=CC2=O)C=C(C(=O)OC)C1c1cccc(OC)c1OC      GI50              12.9 µM
 3  O=C1N=C2c3c(sc4c3CCCC4)N=CN2C1N=Nc1ccc(Cl)cc1 (configuration not stated)      GI50              39.3 µM
 4  COc1ccc(C2CC(=O)Nc3c2c(C)nn3-c2nc3ccccc3[nH]2)cc1 (configuration not stated)      GI50              3.19 µM
 5  Cc1c(C(=O)/C=C/c2ccc(O)cc2)nnn1-c1ccnc2c(C(F)(F)F)cccc12      GI50              41.9 µM
 6  COc1ccc(-c2ccc(/C=N/n3cn[nH]c3=S)o2)c([N+](=O)[O-])c1      GI50              54.4 µM
 7  OCCNc1nc(NCCO)nc(Nc2ccc(C3=NN(c4cc(Cl)cc(Cl)c4)C(c4ccc(Cl)cc4)C3)cc2)n1 (configuration not stated)      GI50              1.63 µM
 8   C#Cc1cccc(NC(=O)Nc2ccc(NC(=O)CCl)cc2)c1      GI50              12.2 µM
 9           Nc1nc(-n2cccn2)nc(-n2cccn2)c1Br      GI50             > 100 µM
10  CCOC(=O)c1cc2c(cc1Cl)SC(N(c1ccc(F)cc1)S(=O)(=O)c1ccc(OC)cc1)=NS2(=O)=O      GI50              17.9 µM

Please report GI50 for every entry that follows.
1. COC(=O)Nc1ccc2ccc3c(NC(=O)OC)ccc4ccc1c2c43 (tested in a mixture with another compound)
2. CCOC(=O)c1sc(=S)c2c(C(=O)c3ccccc3)c(C(=O)c3ccccc3)sc2c1C(=O)OCC

Response line:
1. 5.21 µM
2. 5.12 µM
